Cited source: the supplement of paper PMC10724198

# Test system: Saccharomyces cerevisiae
# Experimental Details: protein stability index of tFT-peptide fusion (C-terminal peptide) (PSI (0-1 scale)); higher = more stable (slower turnover)
# Experimental Context: genetic background: wild type; temperature: 30 C
Assay Readout: protein stability index

Completed entries (count: 4):
{"Sequence String": "SIPAPLAPLWGL", "Assayed Target": "Saccharomyces cerevisiae", "protein stability index": 0.627}
{"Sequence String": "QKSCHIADGREL", "Assayed Target": "Saccharomyces cerevisiae", "protein stability index": 0.671}
{"Sequence String": "AFNRYASRIQEV", "Assayed Target": "Saccharomyces cerevisiae", "protein stability index": 0.695}
{"Sequence String": "KLSSQAWMISEK", "Assayed Target": "Saccharomyces cerevisiae", "protein stability index": 0.695}

Problem: Given the entry CGTPDLGLLRAT , report its measured protein stability index.
Solution: 0.74

Problem: Same again, this time with RRKLMLWTSKLE
Solution: 0.705

Problem: Same again, this time with LRRPSPPAPPPP
Solution: 0.718

Problem: Same again, this time with RKFLCKSPIECS
Solution: 0.574

Problem: Same again, this time with CLSGVLDFLLFL
Solution: 0.648

Problem: Same again, this time with GTSDLIALLMLT
Solution: 0.509

Problem: Same again, this time with ALSRLLPPRPPV
Solution: 0.608

Problem: Same again, this time with DMHTPATDSPLP
Solution: 0.783

Problem: Same again, this time with AGLIRDAVILIG
Solution: 0.631

Problem: Same again, this time with WSRPAGVRSSLA
Solution: 0.704

Problem: Same again, this time with MPLPRQTSAPRP
Solution: 0.665

Problem: Same again, this time with FFFFFIHFLCYF
Solution: 0.31

Problem: Same again, this time with VDASQTRYSRGS
Solution: 0.74

* * *

# System: Saccharomyces cerevisiae
# Experimental Details: protein stability index of tFT-peptide fusion (C-terminal peptide) (PSI (0-1 scale)); higher = more stable (slower turnover)
# Experimental Context: genetic background: wild type; temperature: 30 C
Measured protein stability index determines class: zone 1: < 0.3; zone 2: ≥ 0.3 and < 0.4; zone 3: ≥ 0.4

Some entries whose results are on file:
{"Sequence String": "YIYIFLVWGWYC", "Answer Label": "zone 1"}
{"Sequence String": "FPFHSRPCLPVL", "Answer Label": "zone 3"}
{"Sequence String": "PAPQAVRIFSLY", "Answer Label": "zone 1"}
{"Sequence String": "TKDFVIKKTKIS", "Answer Label": "zone 1"}
{"Sequence String": "RLLCLARMRGLH", "Answer Label": "zone 2"}

Problem: Field: class (protein stability index) — entry: CRRLCGWLFVCV
Solution: zone 2

Problem: Same again, this time with WAIVVLVCFLRL
Solution: zone 1

Problem: Same again, this time with ILISVNRVVLYC
Solution: zone 1

Problem: Same again, this time with GLLFWSGVVSWV
Solution: zone 1

Problem: Same again, this time with SRSVLLCFCWLC
Solution: zone 1

Problem: Same again, this time with GWVSCCVWSFLV
Solution: zone 1

* * *

protein stability index listing for selected sequences.
# Tested on: Saccharomyces cerevisiae
# Experimental Details: protein stability index of tFT-peptide fusion (C-terminal peptide) (PSI (0-1 scale)); higher = more stable (slower turnover)
# Experimental Context: genetic background: das1 deletion; temperature: 30 C
Please reply with the value in numeric form only.

{"Sequence String": "SLYPRFSGRCKP [DED81 C-terminal 12 aa]", "Assayed Target": "Saccharomyces cerevisiae", "Test Value": 0.703}

From here, focus on the item given below.
Problem: Given the entry IAPIRIYKITKQ [EFM3 C-terminal 12 aa] , report its measured protein stability index.
Solution: 0.686
